# System: HFF
# assay text: Cytotoxicity against human foreskin fibroblast at 1 uM
# Format: cell-based
readout kind: Activity

[[record]]
compound = "Oc1ccc([C@@H]2c3c(O)cc4c(c3[C@@H]3c5c(O)cc6c(c5[C@H]2[C@H]3c2ccc(O)cc2)[C@@H](c2cc(O)cc(O)c2)[C@H](c2ccc(O)cc2)O6)[C@@H](c2cc(O)cc(O)c2)[C@H](c2ccc(O)cc2)O4)cc1 [VATICANOL C]"
target_desc = "HFF"
value_measured = "Non-toxic"

[[record]]
compound = "OC[C@H]1O[C@@H](Oc2cc3c4c(c2)[C@@H]([C@@H]2c5cc(O)cc6c5[C@@H](c5cc(O)cc(O)c5[C@H]2c2ccc(O)cc2)[C@H](c2ccc(O)cc2)O6)[C@H](c2ccc(O)cc2)c2c(O)cc(O)cc2[C@H]4[C@H](c2ccc(O)cc2)O3)[C@H](O)[C@@H](O)[C@@H]1O [VATALBINOSIDE A]"
target_desc = "HFF"
value_measured = "Non-toxic"

[[record]]
compound = "Oc1ccc([C@@H]2c3c(O)cc(O)cc3[C@@H]3c4c(cc(O)cc4[C@H]2[C@@H]2c4cc(O)c([C@@H](c5ccc(O)cc5)[C@@H]5c6c(c(O)cc7c6[C@@H](c6cc(O)cc(O)c6)[C@H](c6ccc(O)cc6)O7)[C@H](c6cc(O)cc7c6[C@H](c6cc(O)cc(O)c6)[C@@H](c6ccc(O)cc6)O7)[C@H]5c5ccc(O)cc5)c5c4[C@@H](c4cc(O)cc(O)c4[C@H]2c2ccc(O)cc2)[C@H](c2ccc(O)cc2)O5)O[C@H]3c2ccc(O)cc2)cc1 [VATERIAPHENOL A]"
target_desc = "HFF"
value_measured = "Non-toxic"

[[record]]
compound = "Oc1ccc([C@@H]2c3c(O)cc(O)cc3[C@@H]3c4c(cc(O)cc4[C@H]2[C@@H]2c4cc(O)cc5c4[C@@H](c4cc(O)cc(O)c4[C@H]2c2ccc(O)cc2)[C@H](c2ccc(O)cc2)O5)O[C@H]3c2ccc(O)cc2)cc1"
target_desc = "HFF"
value_measured = "Non-toxic"

[[record]]
compound = "Oc1ccc([C@H]2c3c(O)cc4c(c3[C@@H]3[C@@H](c5ccc(O)cc5)c5c(O)cc6c(c5[C@H]23)[C@@H](c2cc(O)cc(O)c2)[C@H](c2ccc(O)cc2)O6)[C@@H](c2cc(O)cc(O)c2)[C@H](c2ccc(O)cc2)O4)cc1 [STENOPHYLLOL C]"
target_desc = "HFF"
value_measured = "Non-toxic"

[[record]]
compound = "Oc1ccc([C@@H]2c3c(O)cc(O)cc3[C@@H]3c4c(cc(O)c5c4[C@@H]2[C@H](c2ccc(O)cc2)[C@H]5c2cc(O)cc4c2[C@@H](c2cc(O)cc(O)c2)[C@H](c2ccc(O)cc2)O4)O[C@H]3c2ccc(O)cc2)cc1 [Vaticanol B]"
target_desc = "HFF"
value_measured = "Non-toxic"

